Where these numbers come from: ChEMBL document CHEMBL4138138

experiment: Cytotoxicity against African green monkey Vero cells assessed as reduction in cell viability after 72 hrs by MTS/PMS assay; format: cell-based; settings: chlorocebus sabaeus
MEASURED_PARAMETER: CC50 at 72 h (µg/mL)
Please give a number only; it is taken to be in µg/mL.

Cc1nc(CSc2nc(N)c3c4c(sc3n2)CC(C(C)(C)C)CC4)sc1C (stereo not drawn) | 1.6

Kindly review the next molecule as well.
[Q] Which CC50 at 72 h value is on record for Cc1cccc(CSc2nc(N)c3c4c(sc3n2)CC(C(C)(C)C)CC4)n1 (stereo not drawn) ?
[A] 25

====

test: Intrinsic clearance in mouse liver microsomes; assay type: ADME, microsome; settings: read-out: CLH
Recorded microsomal CLint, one value per entry.
Please give a number only; it is taken to be in µL/min/mg.

Here are 5 compounds together with their reported answers.
CC(C)(C)C1CCc2c(sc3nc(SCc4ccnn4C4CCCCO4)nc(N)c23)C1 (stereo not given) | 11.5
Cn1nccc1CSc1nc(N)c2c3c(sc2n1)CC(C(C)(C)C)CC3 (stereo not given) | 11.4
Cc1cccc(CSc2nc(N)c3c4c(sc3n2)CC(C(C)(C)C)CC4)n1 (stereo not given) | 40.8
CC(C)(C)C1CCc2c(sc3nc(SCc4ccc([N+](=O)[O-])cc4)nc(N)c23)C1 (stereo not given) | 20.1
CC(C)(C)C1CCc2c(sc3nc(SCc4ccc(C(=O)O)cc4[N+](=O)[O-])nc(N)c23)C1 (stereo not given) | 5.8

[Q] Which microsomal CLint value is on record for Cc1nc(CSc2nc(N)c3c4c(sc3n2)CC(C(C)(C)C)CC4)sc1C (stereo not given) ?
[A] 31.9

[Q] Which microsomal CLint value is on record for CC(C)(C)C1CCc2c(sc3nc(SCc4ccc(C(=O)O)cc4)nc(N)c23)C1 (stereo not given) ?
[A] 7.3

[Q] Which microsomal CLint value is on record for Cc1ccc(CSc2nc(N)c3c4c(sc3n2)CC(C(C)(C)C)CC4)s1 (stereo not given) ?
[A] 21.8

[Q] Which microsomal CLint value is on record for CC(C)(C)C1CCc2c(sc3nc(SCc4cc([N+](=O)[O-])ccc4O)nc(N)c23)C1 (stereo not given) ?
[A] 11.9
